- Test system: Staphylococcus aureus
- assayComment: Antibacterial activity against quinolone susceptible methicillin resistant Staphylococcus aureus OC2878
- Type: functional
# reported MIC; entries follow
The figure you give is taken to be in µg/mL; do not add the unit.

Below, each entry is followed by its recorded MIC result.
molecule | MIC / µg/mL
O=C1CSc2ccc(C(=O)NC3CCc4nn(-c5cccc6cccnc56)cc4C3)cc2N1 (stereo unspecified) | 0.25
COc1ccc2nccc(-n3cc4c(n3)CCC(NC(=O)c3ccc5c(c3)NC(=O)CS5)C4)c2c1 (stereo unspecified) | 0.125
CCn1cc(C(=O)O)c(=O)c2cc(F)c(N3CCNCC3)cc21 [NORFLOXACIN] | 1
COc1ccc2nccc(-n3cc4c(n3)CCC(NC/C=C/c3ccccc3)C4)c2c1 (stereo unspecified) | 0.5
COc1ccc2nccc(-n3cc4c(n3)CCC(NCc3ccc5c(c3)NC(=O)CS5)C4)c2c1 (stereo unspecified) | 0.5

Proceed to the following item.
Quick one: MIC for COc1ccc2nccc(-n3cc4c(n3)CCC(NC(=O)c3cc5c(cc3F)SCC(=O)N5)C4)c2n1 (stereo unspecified) ?
0.031

* * *

- Tested on: Staphylococcus aureus
- assayComment: Antibacterial activity against Staphylococcus aureus ATCC 13709
- Format: functional
measurementType: MIC (µg/mL)
The figure you give is taken to be in µg/mL; do not add the unit.

Below, each entry is followed by its recorded MIC result.
molecule | valueMeasured
COc1ccc2nccc(-n3cc4c(n3)CCC(NC(=O)c3cc5c(cc3F)SCC(=O)N5)C4)c2n1 (stereo unspecified) | 0.25
COc1ccc2nccc(-n3cc4c(n3)CCC(NC(=O)c3ccc(C)c([N+](=O)[O-])c3)C4)c2n1 (stereo unspecified) | 0.25
COc1ccc2nccc(-n3cc4c(n3)CCC(NC(=O)c3cc5c(cc3OC)SCC(=O)N5)C4)c2n1 (stereo unspecified) | 2

Quick one: MIC for COc1ccc2nccc(-n3cc4c(n3)CCC(NC(=O)c3cc5c(cc3F)SCC(=O)N5)C4)c2c1 (stereo unspecified) ?
0.03

* * *

# reported MIC; entries follow
- Test system: Streptococcus pneumoniae
- assayComment: Antibacterial activity against Streptococcus pneumoniae ATCC 49619
- Format: functional
The figure you give is taken to be in µg/mL; do not add the unit.

Below, each entry is followed by its recorded MIC result.
compound | uom | MIC
COc1ccc2nccc(-n3cc4c(n3)CCC(NC(=O)c3cc5c(cc3Br)SCC(=O)N5)C4)c2n1 (centres undefined) | µg/mL | 2
COc1ccc2nccc(-n3cc4c(n3)CCC(NC/C=C/c3ccccc3)C4)c2c1 (centres undefined) | µg/mL | 1
COc1ccc2nccc(-n3cc4c(n3)CCC(NC(=O)c3cc5c(cc3Br)SCC(=O)N5)C4)c2c1 (centres undefined) | µg/mL | 2
COc1ccc2nccc(-n3cc4c(n3)CCC(NC(=O)c3cc(F)c(Cl)cc3Cl)C4)c2c1 (centres undefined) | µg/mL | 8
COc1ccc2nccc(-n3cc4c(n3)CCC(NC(=O)c3ccc5c(c3)OCCO5)C4)c2n1 (centres undefined) | µg/mL | 8

Quick one: MIC for COc1ccc2nccc(-n3cc4c(n3)CCC(NC(=O)c3cc5c(cc3OC)SCC(=O)N5)C4)c2n1 (centres undefined) ?
16

Quick one: MIC for COc1ccc2nccc(-n3cc4c(n3)CCC(NC(=O)c3cc5c(cc3C(=O)O)SCC(=O)N5)C4)c2n1 (centres undefined) ?
16

Quick one: MIC for COc1ccc2nccc(-n3cc4c(n3)CCC(NC(=O)c3cc5c(cc3C)SCC(=O)N5)C4)c2c1 (centres undefined) ?
16

* * *

- Tested on: Streptococcus pneumoniae
- assayComment: Antibacterial activity against Streptococcus pneumoniae ATCC 49619
- Type: functional
measurementType: MIC

molecule | valueMeasured
O=C1CSc2ccc(C(=O)NC3CCc4nn(-c5ccnc6cc(Cl)ccc56)cc4C3)cc2N1 (stereo unspecified) | > 128 µg/mL

Item COc1ccc2nccc(-n3cc4c(n3)CCC(NC/C=C/c3ccccc3)C4)c2n1 (stereo unspecified) with Streptococcus pneumoniae - MIC?
< 0.125 µg/mL

Item Cc1cc(-n2cc3c(n2)CCC(NC(=O)c2ccc4c(c2)NC(=O)CS4)C3)c2cc(F)ccc2n1 (stereo unspecified) with Streptococcus pneumoniae - MIC?
> 128 µg/mL

Item COc1ccc2nccc(-n3cc4c(n3)CCC(NC(=O)c3cc5c(cc3C)SCC(=O)N5)C4)c2n1 (stereo unspecified) with Streptococcus pneumoniae - MIC?
> 16 µg/mL

Item COc1ccc2nccc(-n3cc4c(n3)CCC(NC(=O)c3cc5c(cc3C(=O)O)SCC(=O)N5)C4)c2c1 (stereo unspecified) with Streptococcus pneumoniae - MIC?
> 16 µg/mL

Item COc1ccc2nccc(-n3cc4c(n3)CCC(NCCCc3ccccc3)C4)c2n1 (stereo unspecified) with Streptococcus pneumoniae - MIC?
< 0.125 µg/mL
